biological target: plate bound mCD1d (Mus musculus); construct: recombinant soluble murine CD1d (mCD1d) was diluted to 400 μg/ml in PBS pH 7.2; assay: Ligand binding to plate bound mCD1d with and without UV activation, ELISA using mAb L363; design: species or system murine; conditions: UV irradiated 365 nm 1 hr; 3 days in PBS+0.05% Triton X-100 at 25° C.
Sequence (P11609 22-305 limits assumed): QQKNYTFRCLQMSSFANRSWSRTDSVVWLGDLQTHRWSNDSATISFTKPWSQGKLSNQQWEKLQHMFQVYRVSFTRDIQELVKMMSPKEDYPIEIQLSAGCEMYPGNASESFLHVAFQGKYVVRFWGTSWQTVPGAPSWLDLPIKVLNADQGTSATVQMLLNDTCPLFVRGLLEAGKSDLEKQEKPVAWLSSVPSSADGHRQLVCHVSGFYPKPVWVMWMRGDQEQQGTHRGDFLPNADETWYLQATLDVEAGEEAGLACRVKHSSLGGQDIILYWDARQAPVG
Sequence (P01887 21-119 partner): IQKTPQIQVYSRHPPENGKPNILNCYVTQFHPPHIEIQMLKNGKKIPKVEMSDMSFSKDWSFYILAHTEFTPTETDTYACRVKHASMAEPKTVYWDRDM
propertyLabel: dissociation of CD1d:glycolipid complex after 3 days (L363 ELISA)

compound: CCCCCCCCCCCCCCCCCCCCCCCCCC(=O)N[C@@H](CO[C@H]1O[C@H](CO)[C@H](O)[C@H](O)[C@H]1O)[C@H](O)[C@H](O)CCCCCCCCCCCCCC [KRN7000, reference compound]
assayValue: dissociated after 3 days

compound: CCCCCCCCCCCCCC[C@@H](O)[C@@H](O)[C@H](CO[C@H]1O[C@H](CO)[C@H](O)[C@H](O)[C@H]1O)NC(=O)CCCCCCCCCCc1ccc(F)cc1 [Compound 7DW8-5, reference compound]
assayValue: dissociated after 3 days
